# System: K4 kissing-loop RNA reporter;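 note: bound reporter read as fluorescence of individual clusters on recovered sequencing chips by microscopy, with normalized cluster intensities fitted with a binding model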
# test summary: apparent KD of K4 kissing-loop reporter; higher = weaker reporter binding
# assay conditions: Eterna round: R107; input ligand: FMN 200 uM
Field: apparent KD of K4 kissing-loop reporter. Provide a value for each of the sequences that follow.
Field format: number, assumed nM, no unit text.

// fetch K4 kissing-loop RNA reporter apparent KD of K4 kissing-loop reporter for UUUCGGUUCUGAGGAUAUUCGGACAAAUAUAGUGAUGUUGUAUAAGGAGGAGGGUGUUGGCAGUGAGGAGAAGGCAGAAGAGGAU [ExFMNB.T]
1000

What do you have for AAGUGUGUGGCGGCCGCCACUAGAAUCCAGUGAUGUUGGAGUUAUCAAAUAAAUGAUAAUCAACAUAGGACCGGGCCAUAUAGAA [Same State - Tryptophan B (Freestyle 4)] ?
690

Moving on to UUGGGCAGUGAUGUUGGCUAGGCCACAGAUACCAGACGCAUGCACGUCCCUUGGCAGCUGCGAAAGUUAGACUUGUAAUGAUAGU [theeternabot_sameState_KL_Theo_A_45]
418

Consider next the sequence ACUACGAAGACGGCCGCCACUGAUAUUCGUAGAUCCAUCAUUACAUGAGUGAUGUUCAUGUAUAUCAGGACCGGGUCAAGAUGGU [KL-XTryp-B17 #analogue] in the same way.
184

What do you have for UCGGGAGGCCGAAGGAGCGCCGCCAGUGAUGUUGGGAGUUAGAUACCAGUGAUGUUGGGCCGGCAGGUAGGUCGCGGCCGCGGAU [Exclusion Arginine B Gf 18] ?
201

Now the same for AAAAUUGCGGUCGAAUUAACUUCUUGCAUACGAGGACCGGUACGGCCGCCACUCGAGUCAAGUGAUGUUUGAUAAUCUAUUAUUA [JR_ExcTryptoA_Sub011]
190

Here is the next sequence: GGAGGAGAGGGAAGGAGCGUGAAAGAGAAAGAAUAUAGUGAUGUUAUAUAGAAGAAAGAAUCACAGGUAGGUCGCCCGGAGGAGG [SSArgB.A]
331

And the next one, UGGACUAGUGUGAGUGAUGUUCACUUCGAUACCAGCAGAGCGAUCUGCCCUUGGCAGCGAGUUAACUGCCGAAAGGCAAGGUCCA [Theo B SS t9a] ?
457

Next sequence: UUAGAGAUCUCAGGAUAUGAGUGAUGUUGGUAUCAAGAUCUGAGAUAGAAUUCUAUCUCAGAUCAAUCAGAAGGGAGAUCUCAUU [AK2.1 Exc FMN B]
376

Follow-up entry: CUUGAUCGAGGAAGGAGCGGGCCGUCAUUGAGCGCAGUGAUGUUGCGGUCGACUAGUCGAGCCCAGGUAGGUCGCCUGGAGUAAG [Xeveis]
202

Thanks! And GCAAAACAAACGUAGAGUGGAACACAGAGACGAGGACCGGUACGGCCGCCACUCGACGAGGUUUUCAGUGAUGUUGAAAAUUUAG [Exclusion Tryptophan A GF2] ?
133

Please do the same for `GCCGUACGCAUGGAUACCAGCUAUUAGAGUGAUGUUCUAUGGCCCUGCCAGAGUAGCUGUAGCCCUUGGCAGCCAUGCGUACGGC` as well.
148

What about AGGAUCCGUCGACAAAAGUCGACAUAAACCAAGGAUAUGACGAAAGUCAGAAGGUGGUCAUAAGACCAGUGAUGUUGGUGGAUCC [FmnA 11 #SwitchBubble #K4Late] ?
984

Okay, and GUAGCACUCGGUAGUGAUGUUAUCGAGGACAAGGAUAUCAUCUCAAUGAGAAGGUGUCCUUGAUAACAGCUACGGGAAUAUCCCA [Omei KL FMN A Exc D v4] ?
386

Quick one: CGCGCUGGUUGAGAGGUUGGCGCGAAUGAUACCAGUAUAUAAGAAUACCCUUGGCAGCAUAAGAAAGAUAUAGUGAUGUUGUAUA [SSTheophA.H]
592

CCUUGGGCACGCCCACUAGGAAGCUAGUCUAAGGAUAUCGACUGGACGAGAAGGUAGACGGACCCGAGUGAUGUUCGGACAUAGG [theeternabot_sameState_KL_FMN_A_1] ?
469

And the next one, CGCAGUGAUGUUGCUAUUAUUCUUGAUUAACGAGGACCGGUACGGCCGCCACUCGAUUUCUAUCUUAUUUUGUGUUAUGUUGAUU [JR_ExcTryptoA_Sub008] ?
306

Further, for AAACAUCACUGGGAGUGAUGUUCUCAGUGACGAGGACCGGUACGGCCGCCACUCGCGAGAGAACUAGUCUAGUCUUGACUGCAUU [Excl Tryptophan A V14] ?
277

Cool, now `UGAUAGGACAGAAGGAGCGGUAGUGAUGUUGCCAAAAGGGUAAGGUGUCAAAAGACACCCUGCCAGGUAGGUCGCUGUCCUAUCU`
99.7
